- System: ATS189
- TEST_PROTOCOL: qHTS profiling for inhibitors of Plasmodium falciparum proliferation (AID 504749); also: nearly all actives have a fitted effect of over 60% in size
- CONDITION_CONTEXT: P. falciparum in erythrocytes, SYBR Green DNA, 72 h; series mostly up to 28.7 µM
- Procedure: NIH National Institute of Allergy and Infectious Diseases [NIAID] NIH Chemical Genomics Center [NCGC] […] Because mature erythrocytes lack DNA, only Plasmodium-derived DNA is detected. NCGC Assay Protocol Summary: The SYBR Green viability assay was adapted from a method described previously (Plouffe et al., 2008). […] The following morning, fluorescence intensity at 485(14) nm excitation and 535(25) nm emission wavelengths was measured on an EnVision (Perkin Elmer) plate reader. […]
Inconclusive results are not listed. Active and inactive are the calls of the source. Calls follow the shape of the dose curve; as a rule, active = well fitted inhibition curve with a large enough effect; inconclusive = small, poorly fitted or top-dose-only effect; inactive = flat fitted curve, though single readings scatter.
RECORDED_ENDPOINT: outcome

In [3]: df
Out[3]:
                              smiles_string       val
0  Cc1c(N(C)CS(=O)(=O)O)c(=O)n(-c2ccccc2)n1C  inactive
1                     CN1CCC[C@@H]1c1cccnc1  inactive
2      CCCCOc1cc(C(=O)NCCN(CC)CC)c2ccccc2n1  inactive
